# Tested on: Zea mays (ZEAMX)
# experiment_notes: Pre-emergence herbicidal evaluation, maize
# Type: in vivo
# run_conditions: dose 0.013 kg/ha
measurement_type: ZEAMX rating

• Cc1cc(OC/C=C/C(F)(F)F)nc(Oc2cc(C(F)(F)F)nn2C)c1 [Example 1] = 1 (1 - Trace effect)
• Cc1cc(OC=CCC(F)(F)F)nc(Oc2cc(C(F)(F)F)nn2C)c1 [Example 2] = 0 (0 - No effect)
• Cc1cc(OCC(F)(F)C(F)(F)C(F)(F)C(F)F)nc(Oc2cc(C(F)(F)F)nn2C)c1 [Example 8] = 1 (1 - Trace effect)

Incoming: Consider the compound Cc1cc(OCC=C(Cl)Cl)nc(Oc2cc(C(F)(F)F)nn2C)c1 [Example 12] tested on Zea mays (ZEAMX); state its ZEAMX rating.
Outgoing: 0 (0 - No effect)

Incoming: Consider the compound Cc1cc(OCC(F)(F)C(F)F)nc(Oc2cc(C(F)(F)F)nn2C)c1 [Example 6] tested on Zea mays (ZEAMX); state its ZEAMX rating.
Outgoing: 0 (0 - No effect)
